set-up: species or system CD1 mice; conditions: mouse, in vivo, sc, 50 mg/kg
This section presents substances with their documented Half-Life in the liver values.
Experimental Endpoint: Half-Life in the liver (days)

- Substance: "416861 (antisense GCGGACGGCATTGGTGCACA; 5-10-5 gapmer, further chemistry not given here) [compound 416861]"
  Experimental Endpoint: "Half-Life in the liver"
  Assay Value: 24.5
- Substance: "416848 (antisense CACAGTTTCTGGCAGGCCTC; 5-10-5 gapmer, further chemistry not given here) [compound 416848]"
  Experimental Endpoint: "Half-Life in the liver"
  Assay Value: 23.5
- Substance: "416866 (antisense CTGGCAGCGGACGGCATTGG; 5-10-5 gapmer, further chemistry not given here) [compound 416866]"
  Experimental Endpoint: "Half-Life in the liver"
  Assay Value: 16.0

Source listed as patent US20230263822A1.
